protocol-text: chemical genetic growth profiling, strain panel (AID 1159580);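 further: tested at 20 µM; growth read once vehicle control cultures reached saturation at 30 °C; 1 = growth at the plate median or of vehicle wells; lower values mean less growth of the strain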
experimental-conditions: S. cerevisiae deletion strains, growth OD, locus YNL271C, strain bni1, hits give low values
In all, about 5,500 compounds went through this assay and about 2,000 (36%) were called active. About 18% were inconclusive and are not listed. The list shows a part of the results.
measurement-label: normalized growth
Answer field: number only, no words.

Example cases with answers are listed next.
| compound | normalized growth |
| --- | --- |
| O=C(O[C@@H]1Cc2c(O)cc(O)cc2O[C@@H]1c1cc(O)c(O)c(O)c1)c1cc(O)c(O)c(O)c1 | 1 |
| OCC(O)CN1CCN(c2ccccc2)CC1 (stereo unspecified) | 0.985 |
| C[C@]12CCC(=O)C=C1C=CC1C2CC[C@@]2(C)C1CC[C@@]2(O)CCC(=O)O (stereo partly specified) | 0.986 |
| COc1cc2c(cc1OC)C(=O)c1ccc(OC)c(OC)c1OCC(=O)C2 | 0.976 |
| NC(=O)c1ccc[n+]([C@@H]2O[C@H](COP(=O)([O-])OP(=O)(O)OC[C@H]3O[C@@H](n4cnc5c(N)ncnc54)[C@H](OP(=O)(O)O)[C@@H]3O)[C@@H](O)[C@H]2O)c1 | 0.993 |

# input for lookup
Form: compound = `COc1cc(OC)c2c(c1)O[C@H](c1cc(OC)c(OC)c(OC)c1)[C@H](OC(=O)c1cc(OC)c(OC)c(OC)c1)C2` ; normalized growth = 1.01

---

protocol-text: chemical genetic growth profiling, strain panel (AID 1159580);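 further: tested at 20 µM; growth read once vehicle control cultures reached saturation at 30 °C; 1 = growth at the plate median or of vehicle wells; lower values mean less growth of the strain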
experimental-conditions: S. cerevisiae deletion strains, growth OD, locus YER110C, hits give low values
The whole screen tested about 5,500 compounds, of which about 2,000 (36%) were called active. Not shown: some 18% with an inconclusive outcome. The list shows a part of the results.
measurement-label: normalized growth
Answer field: number only, no words.

| molecule | normalized growth |
| --- | --- |
| C[C@@H]1CC(Cl)CC[C@H]1C(=O)OC(C)(C)C (some centres not stated) | 0.986 |

Form: molecule = `Oc1cc(O)c2c(c1)O[C@H](c1ccc(O)c(O)c1)[C@H](O)C2` ; normalized growth = 0.969

Form: molecule = `Oc1cc(O)c2c(c1)O[C@H](c1ccc(O)c(O)c1)[C@@H](O)C2` ; normalized growth = 0.98

Form: molecule = `COc1ccc2c(c1)OC/C(=C\c1ccc(OC)c(O)c1)C2=O` ; normalized growth = 0.79

Form: molecule = `CC[C@@]1(O)C[C@H](O[C@H]2C[C@H](N(C)C)[C@H](O)[C@H](C)O2)c2c(cc3c(c2O)C(=O)c2c(O)ccc(O)c2C3=O)[C@H]1C(=O)OC` ; normalized growth = 0.559

Form: molecule = `CCC[C@H](N[C@@H](C)C(=O)N1[C@H](C(=O)O)C[C@@H]2CCCC[C@@H]21)C(=O)OCC` ; normalized growth = 1.02

Form: molecule = `COc1ccc([C@H]2Oc3c(I)c(OC)cc(OC)c3C[C@@H]2O)cc1OC` ; normalized growth = 1

Form: molecule = O=C(OCC(O)CO)c1ccccc1Nc1ccnc2cc(Cl)ccc12 (configuration not stated) ; normalized growth = 0.978

Form: molecule = COc1cc([C@@H]2c3cc4c(cc3C(OC3O[C@@H]5COC(C)O[C@H]5[C@H](O)[C@H]3O)C3COC(=O)[C@@H]32)OCO4)cc(OC)c1O (some centres not stated) ; normalized growth = 0.993

Form: molecule = `CN(C)CCN(Cc1cccs1)c1ccccn1` ; normalized growth = 1.01

Form: molecule = `CC[C@@]1(O)C[C@H](O)c2c(cc3c(c2O)C(=O)c2c(O)ccc(O)c2C3=O)[C@H]1C(=O)OC` ; normalized growth = 0.98

Form: molecule = `COc1ccc(-c2coc3cc(O)ccc3c2=O)c(OC)c1` ; normalized growth = 1.03

Form: molecule = `O=C(O)CCCc1ccc(N(CCCl)CCCl)cc1` ; normalized growth = 0.983

Form: molecule = `C=CCc1ccc(OC(=O)c2ccccc2)c(OC)c1` ; normalized growth = 1.03

Form: molecule = CN1C2CCC1CC(OC(c1ccccc1)c1ccccc1)C2 (configuration not stated) ; normalized growth = 0.974

Form: molecule = `COc1ccc(CN(CCN(C)C)c2ccccn2)cc1` ; normalized growth = 0.968

Form: molecule = `N[C@@H](Cc1ccc(N(CCCl)CCCl)cc1)C(=O)O` ; normalized growth = 0.977
